Task for the reader: assign each of the following binders its reported Remaining activity [%].
# TARGET: VLP2 (virus-like particles, capsid protein particles of AAV serotype 2) (AAV serotype 2 (AAV2)) (UniProt P03135)
# Sequence (P03135 whole entry): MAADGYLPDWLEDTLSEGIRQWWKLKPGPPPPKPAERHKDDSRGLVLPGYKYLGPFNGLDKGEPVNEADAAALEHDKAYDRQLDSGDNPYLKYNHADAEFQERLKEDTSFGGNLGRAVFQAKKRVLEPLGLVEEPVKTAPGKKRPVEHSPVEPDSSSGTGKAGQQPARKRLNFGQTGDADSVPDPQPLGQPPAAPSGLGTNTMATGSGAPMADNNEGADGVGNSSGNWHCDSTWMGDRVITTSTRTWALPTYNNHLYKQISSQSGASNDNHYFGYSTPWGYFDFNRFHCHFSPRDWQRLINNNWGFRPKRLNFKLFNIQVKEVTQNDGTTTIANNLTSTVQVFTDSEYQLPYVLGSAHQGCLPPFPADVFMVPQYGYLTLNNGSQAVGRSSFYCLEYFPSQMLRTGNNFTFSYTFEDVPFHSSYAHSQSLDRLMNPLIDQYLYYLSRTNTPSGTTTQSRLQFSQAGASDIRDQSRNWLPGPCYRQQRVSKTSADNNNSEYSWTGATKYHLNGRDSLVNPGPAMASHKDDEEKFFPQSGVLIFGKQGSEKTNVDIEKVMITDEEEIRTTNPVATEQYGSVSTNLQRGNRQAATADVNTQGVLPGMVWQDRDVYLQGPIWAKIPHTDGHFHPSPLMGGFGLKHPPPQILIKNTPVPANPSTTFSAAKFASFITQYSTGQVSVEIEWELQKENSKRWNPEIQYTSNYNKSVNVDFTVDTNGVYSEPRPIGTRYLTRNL
# MEASUREMENT DESCRIPTION: ELISA on immobilised VLP2 (culture supernatant, anti-His detection); A450 after 1:1 0.5 M NaOH, 30 min, 30°C divided by A450 untreated
One number for each entry, in %.

1) AVR21 with T426A (receptor) MGSAGESDQITLPKHEAQLNVYVLLVPPKGEASTYDWQLITHPRDYSGEMEGEHSQILKLSNLTPGLYEYRAVVEGQNAHSEGYVNVTVEPEPRKNRPPIAIVSPQFQEISLPTTSAVIDGSQSTDDDKIVQYHWEELKGPLREEKISEDTAILKLSQLVPGNYTFRLTVVDTDGATDSTTADLTVNKAVDHHHHHH = 43.5
2) AVR21 with N329K, E401G (receptor) MGSAGESDQITLPKHEAQLKVYVLLVPPKGEASTYDWQLITHPRDYSGEMEGEHSQILKLSNLTPGLYEYRAVVEGQNAHSEGYVNVTVEPGPRKNRPPIAIVSPQFQEISLPTTSTVIDGSQSTDDDKIVQYHWEELKGPLREEKISEDTAILKLSQLVPGNYTFRLTVVDTDGATDSTTADLTVNKAVDHHHHHH = 43.1
3) AVR21 with K(N)371S, E453D, S466T (receptor) MGSAGESDQITLPKHEAQLNVYVLLVPPKGEASTYDWQLITHPRDYSGEMEGEHSQILKLSSLTPGLYEYRAVVEGQNAHSEGYVNVTVEPEPRKNRPPIAIVSPQFQEISLPTTSTVIDGSQSTDDDKIVQYHWEELKGPLRDEKISEDTAILKLTQLVPGNYTFRLTVVDTDGATDSTTADLTVNKAVDHHHHHH = 57.3
4) AVR21 with V412A (receptor) MGSAGESDQITLPKHEAQLNVYVLLVPPKGEASTYDWQLITHPRDYSGEMEGEHSQILKLSNLTPGLYEYRAVVEGQNAHSEGYVNVTVEPEPRKNRPPIAIASPQFQEISLPTTSTVIDGSQSTDDDKIVQYHWEELKGPLREEKISEDTAILKLSQLVPGNYTFRLTVVDTDGATDSTTADLTVNKAVDHHHHHH = 32.5
5) AVR21 with L367P (receptor) MGSAGESDQITLPKHEAQLNVYVLLVPPKGEASTYDWQLITHPRDYSGEMEGEHSQIPKLSNLTPGLYEYRAVVEGQNAHSEGYVNVTVEPEPRKNRPPIAIVSPQFQEISLPTTSTVIDGSQSTDDDKIVQYHWEELKGPLREEKISEDTAILKLSQLVPGNYTFRLTVVDTDGATDSTTADLTVNKAVDHHHHHH = 35.7

Field: next binder
Given AVR21 with Q365R, V(A)381T, K497E (receptor) MGSAGESDQITLPKHEAQLNVYVLLVPPKGEASTYDWQLITHPRDYSGEMEGEHSRILKLSNLTPGLYEYRTVVEGQNAHSEGYVNVTVEPEPRKNRPPIAIVSPQFQEISLPTTSTVIDGSQSTDDDKIVQYHWEELKGPLREEKISEDTAILKLSQLVPGNYTFRLTVVDTDGATDSTTADLTVNEAVDHHHHHH , respond with its Remaining activity [%].
42
